Target: Estrogen receptor beta (Homo sapiens)
Test: Displacement of [3H]estradiol from human ERbeta relative to estradiol
RBA less than 0.04% is t; RBA greater than or equal to 0.04% is f.

Completed entries (count: 2):
# compound, classification
rows = [
    ("O=C1C2C3OC(C(c4ccc(O)cc4)=C3c3ccc(O)cc3)C2C(=O)N1c1ccccc1 (stereo not given)", "t"),
    ("O=S(=O)(c1ccccc1)C1CC2OC1C(c1cccc(O)c1)=C2c1ccc(O)cc1 (stereo not given)", "t"),
]

Strictly below 0.04% in RBA? COc1ccc(OS(=O)(=O)C2CC3OC2C(c2ccc(O)cc2)=C3c2ccc(O)cc2)cc1 (stereo not given)
f

Strictly below 0.04% in RBA? CN1C(=O)C2C3OC(C(c4ccc(O)cc4)=C3c3ccc(O)cc3)C2C1=O (stereo not given)
t

Strictly below 0.04% in RBA? O=S(=O)(Oc1ccc(O)cc1)[C@H]1CC2OC1C(c1ccccc1)=C2c1ccccc1 (stereo in doubt; exo)
t

----------
Target: UniProtKB P03372
Sequence (whole entry): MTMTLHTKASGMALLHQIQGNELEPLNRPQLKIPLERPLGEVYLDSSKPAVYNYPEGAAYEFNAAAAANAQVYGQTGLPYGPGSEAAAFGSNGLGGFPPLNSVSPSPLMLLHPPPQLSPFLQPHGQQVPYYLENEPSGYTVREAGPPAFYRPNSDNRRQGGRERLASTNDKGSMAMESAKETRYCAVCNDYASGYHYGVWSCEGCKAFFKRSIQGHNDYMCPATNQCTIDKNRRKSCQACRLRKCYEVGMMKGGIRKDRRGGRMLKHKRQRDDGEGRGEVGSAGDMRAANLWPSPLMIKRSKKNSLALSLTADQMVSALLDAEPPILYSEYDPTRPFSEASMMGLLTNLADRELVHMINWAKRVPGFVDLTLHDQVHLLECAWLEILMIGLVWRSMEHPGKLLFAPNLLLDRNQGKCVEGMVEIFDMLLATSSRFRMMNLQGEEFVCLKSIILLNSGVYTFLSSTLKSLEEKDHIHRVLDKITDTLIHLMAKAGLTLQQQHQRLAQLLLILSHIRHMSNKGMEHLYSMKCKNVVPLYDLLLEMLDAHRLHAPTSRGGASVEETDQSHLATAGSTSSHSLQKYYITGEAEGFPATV
Assay: Displacement of [3H]estradiol from human ERalpha relative to estradiol
value type: RBA (%)
# value in %; strip the unit string

# molecule, units text, RBA
measured = [
    ("CCS(=O)(=O)C1CC2OC1C(c1ccc(O)cc1)=C2c1ccc(O)cc1 (stereo not given)", "%", 0.1),
    ("O=S(=O)(Oc1ccccc1)C1CC2OC1C(c1cccc(O)c1)=C2c1ccc(O)cc1 (stereo not given)", "%", 0.9),
    ("COC(=O)C1=C(c2ccccc2)C2OC1C(c1ccccc1)=C2c1ccccc1 (stereo not given)", "%", 0.007),
    ("O=S(=O)(Oc1ccc(O)cc1)C1CC2OC1C(c1ccc(O)cc1)=C2c1ccc(O)cc1 (stereo not given)", "%", 2.2),
    ("O=S(=O)(Oc1ccccc1)[C@H]1CC2OC1C(c1ccc(O)cc1)=C2c1ccc(O)cc1 (stereo in doubt; endo)", "%", 4.1),
    ("O=S(=O)(Oc1ccc(O)cc1)[C@H]1CC2OC1C(c1ccccc1)=C2c1ccccc1 (stereo in doubt; endo)", "%", 0.025),
]

Please give the measured RBA for this molecule: O=C1C2C3OC(C(c4ccc(O)cc4)=C3c3ccc(O)cc3)C2C(=O)N1c1ccccc1 (stereo not given)
0.013

Please give the measured RBA for this molecule: CN1C(=O)C2C3OC(C(c4ccc(O)cc4)=C3c3ccc(O)cc3)C2C1=O (stereo not given)
0.02

These entries and their values trace back to ChEMBL document CHEMBL1139477.
